Recorded inhibition by entry
target_entity: Receptor tyrosine-protein kinase erbB-4 (Homo sapiens) (UniProt Q15303);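 further: values are averaged percent inhibition of ERBB4 kinase activity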
Sequence (Q15303 whole entry): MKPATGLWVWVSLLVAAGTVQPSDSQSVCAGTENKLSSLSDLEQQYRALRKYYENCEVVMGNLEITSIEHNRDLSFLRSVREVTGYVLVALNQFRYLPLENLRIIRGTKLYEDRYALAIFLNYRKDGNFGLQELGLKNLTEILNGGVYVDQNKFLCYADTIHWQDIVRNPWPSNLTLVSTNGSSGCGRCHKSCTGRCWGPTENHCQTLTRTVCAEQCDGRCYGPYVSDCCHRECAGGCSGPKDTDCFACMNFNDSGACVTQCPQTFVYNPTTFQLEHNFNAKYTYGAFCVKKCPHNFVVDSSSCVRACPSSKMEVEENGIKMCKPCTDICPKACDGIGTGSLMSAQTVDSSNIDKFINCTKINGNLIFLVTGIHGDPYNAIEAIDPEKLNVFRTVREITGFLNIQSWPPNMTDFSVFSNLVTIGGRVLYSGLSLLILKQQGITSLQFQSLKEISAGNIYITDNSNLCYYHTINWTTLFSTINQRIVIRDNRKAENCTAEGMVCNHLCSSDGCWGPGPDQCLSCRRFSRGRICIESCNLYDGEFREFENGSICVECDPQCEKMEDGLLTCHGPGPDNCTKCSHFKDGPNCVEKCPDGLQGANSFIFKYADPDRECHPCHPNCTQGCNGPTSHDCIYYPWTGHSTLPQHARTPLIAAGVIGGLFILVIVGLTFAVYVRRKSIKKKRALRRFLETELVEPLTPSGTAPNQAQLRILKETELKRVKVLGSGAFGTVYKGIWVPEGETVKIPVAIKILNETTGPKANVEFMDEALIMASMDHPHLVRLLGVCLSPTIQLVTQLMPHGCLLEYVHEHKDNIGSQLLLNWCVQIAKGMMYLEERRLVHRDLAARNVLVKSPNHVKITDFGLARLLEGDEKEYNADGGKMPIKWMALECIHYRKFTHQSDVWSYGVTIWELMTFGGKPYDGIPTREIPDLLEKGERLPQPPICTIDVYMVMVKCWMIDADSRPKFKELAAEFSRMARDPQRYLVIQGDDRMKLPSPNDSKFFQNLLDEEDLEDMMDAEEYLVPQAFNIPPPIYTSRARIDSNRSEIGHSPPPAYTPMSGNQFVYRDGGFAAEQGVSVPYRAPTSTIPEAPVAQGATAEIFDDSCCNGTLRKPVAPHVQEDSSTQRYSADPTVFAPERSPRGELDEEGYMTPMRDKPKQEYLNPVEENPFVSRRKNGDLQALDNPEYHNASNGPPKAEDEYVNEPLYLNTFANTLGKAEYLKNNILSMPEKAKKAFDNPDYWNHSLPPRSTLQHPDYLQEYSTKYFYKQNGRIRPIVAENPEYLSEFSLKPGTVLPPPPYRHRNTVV
condition_description: at 0.1 µM

[
  {
    "mol_smiles": "COc1cc2ncn(-c3cc(O[C@H](C)c4ccccc4Cl)c(C(N)=O)s3)c2cc1OC",
    "target_entity": "Receptor tyrosine-protein kinase erbB-4 (Homo sapiens) (UniProt Q15303)",
    "measurement_units": "%",
    "inhibition": 7.95
  },
  {
    "mol_smiles": "Cc1cc(O)cc(C)c1/C=C/c1cncc(-c2nn[nH]n2)c1",
    "target_entity": "Receptor tyrosine-protein kinase erbB-4 (Homo sapiens) (UniProt Q15303)",
    "measurement_units": "%",
    "inhibition": 12.1
  },
  {
    "mol_smiles": "COc1cc2ncn(-c3cc(O[C@@H](C)c4ccccc4Cl)c(C(N)=O)s3)c2cc1OC",
    "target_entity": "Receptor tyrosine-protein kinase erbB-4 (Homo sapiens) (UniProt Q15303)",
    "measurement_units": "%",
    "inhibition": 6.3
  },
  {
    "mol_smiles": "[O-][S+]1CCN(Cc2ccc(-c3ccc4ncnc(Nc5ccc(OCc6ccccc6)c(F)c5)c4c3)o2)CC1",
    "target_entity": "Receptor tyrosine-protein kinase erbB-4 (Homo sapiens) (UniProt Q15303)",
    "measurement_units": "%",
    "inhibition": 68.7
  },
  {
    "mol_smiles": "COc1cc2c(cc1Nc1nc(N3CCc4ccccc43)c3cc[nH]c3n1)N(C(=O)CN(C)C)CC2",
    "target_entity": "Receptor tyrosine-protein kinase erbB-4 (Homo sapiens) (UniProt Q15303)",
    "measurement_units": "%",
    "inhibition": 6.72
  },
  {
    "mol_smiles": "Cc1ccc(NC(=O)c2ccnc(N3CCCC3)c2)cc1-c1ccc(C(=O)NCC2CC2)cc1",
    "target_entity": "Receptor tyrosine-protein kinase erbB-4 (Homo sapiens) (UniProt Q15303)",
    "measurement_units": "%",
    "inhibition": 6.37
  },
  {
    "mol_smiles": "CCN1CCC(CC(=O)Nc2n[nH]c3nc(-c4cccs4)c(Br)cc23)CC1",
    "target_entity": "Receptor tyrosine-protein kinase erbB-4 (Homo sapiens) (UniProt Q15303)",
    "measurement_units": "%",
    "inhibition": -5.1
  },
  {
    "mol_smiles": "CCn1c(-c2nonc2N)nc2c(C#CC(C)(C)O)nc(CN3CCCC3)cc21",
    "target_entity": "Receptor tyrosine-protein kinase erbB-4 (Homo sapiens) (UniProt Q15303)",
    "measurement_units": "%",
    "inhibition": 3.95
  },
  {
    "mol_smiles": "Nc1nc(-c2ccc3c(c2)C(=Cc2cc(Br)c(O)c(Br)c2)C(=O)N3)cs1",
    "target_entity": "Receptor tyrosine-protein kinase erbB-4 (Homo sapiens) (UniProt Q15303)",
    "measurement_units": "%",
    "inhibition": -6.34
  },
  {
    "mol_smiles": "CCc1cccc(NC(=O)Nc2ccc(Oc3ccc4nc(NC(=O)OC)[nH]c4c3)cc2)c1",
    "target_entity": "Receptor tyrosine-protein kinase erbB-4 (Homo sapiens) (UniProt Q15303)",
    "measurement_units": "%",
    "inhibition": 9.67
  },
  {
    "mol_smiles": "COc1cc(C)c(NC(=O)CN(C)C)cc1Nc1nc(Nc2cccc(F)c2C(N)=O)c2cc[nH]c2n1",
    "target_entity": "Receptor tyrosine-protein kinase erbB-4 (Homo sapiens) (UniProt Q15303)",
    "measurement_units": "%",
    "inhibition": 10.4
  },
  {
    "mol_smiles": "COc1cc2ncn(-c3cc(OCc4ccccc4C(F)(F)F)c(C(N)=O)s3)c2cc1OC",
    "target_entity": "Receptor tyrosine-protein kinase erbB-4 (Homo sapiens) (UniProt Q15303)",
    "measurement_units": "%",
    "inhibition": 3.59
  },
  {
    "mol_smiles": "NS(=O)(=O)c1ccc(N/N=C2\\C(=O)Nc3ccc(C(=O)NCCc4c[nH]cn4)cc32)cc1",
    "target_entity": "Receptor tyrosine-protein kinase erbB-4 (Homo sapiens) (UniProt Q15303)",
    "measurement_units": "%",
    "inhibition": 6.82
  },
  {
    "mol_smiles": "Cc1nn(C)c2cc(N(C)c3ccnc(Nc4cccc(S(N)(=O)=O)c4)n3)ccc12",
    "target_entity": "Receptor tyrosine-protein kinase erbB-4 (Homo sapiens) (UniProt Q15303)",
    "measurement_units": "%",
    "inhibition": 11
  },
  {
    "mol_smiles": "NCc1ccc(-c2nc(-c3ccc(Cl)c(O)c3)c(-c3ccncc3)[nH]2)cc1",
    "target_entity": "Receptor tyrosine-protein kinase erbB-4 (Homo sapiens) (UniProt Q15303)",
    "measurement_units": "%",
    "inhibition": 11.1
  },
  {
    "mol_smiles": "CS(=O)(=O)CCNCc1ccc(-c2ccc3ncnc(Nc4ccc(OCc5ccccc5)c(Cl)c4)c3c2)o1",
    "target_entity": "Receptor tyrosine-protein kinase erbB-4 (Homo sapiens) (UniProt Q15303)",
    "measurement_units": "%",
    "inhibition": 59.8
  },
  {
    "mol_smiles": "COC(=O)Nc1nc2cc(Oc3ccc(NC(=O)Nc4cccc(C(=O)O)c4)cc3)ccc2[nH]1",
    "target_entity": "Receptor tyrosine-protein kinase erbB-4 (Homo sapiens) (UniProt Q15303)",
    "measurement_units": "%",
    "inhibition": 2.52
  },
  {
    "mol_smiles": "CCn1c(-c2nonc2N)nc2c(C#CC(C)(C)O)nc(OC[C@@H](N)c3ccccc3)cc21",
    "target_entity": "Receptor tyrosine-protein kinase erbB-4 (Homo sapiens) (UniProt Q15303)",
    "measurement_units": "%",
    "inhibition": -4.79
  },
  {
    "mol_smiles": "O=C1NC(=O)C(c2ccc(Cl)cc2)=C1Nc1ccc(Cl)c(C(=O)O)c1",
    "target_entity": "Receptor tyrosine-protein kinase erbB-4 (Homo sapiens) (UniProt Q15303)",
    "measurement_units": "%",
    "inhibition": -7.86
  },
  {
    "mol_smiles": "O=C(Nc1n[nH]c2nc(-c3ccco3)c(Br)cc12)C1CC1",
    "target_entity": "Receptor tyrosine-protein kinase erbB-4 (Homo sapiens) (UniProt Q15303)",
    "measurement_units": "%",
    "inhibition": 10.1
  },
  {
    "mol_smiles": "Nc1ncnc2occ(-c3ccc(NC(=O)Nc4cccc(C(F)(F)F)c4)cc3)c12",
    "target_entity": "Receptor tyrosine-protein kinase erbB-4 (Homo sapiens) (UniProt Q15303)",
    "measurement_units": "%",
    "inhibition": 8.79
  },
  {
    "mol_smiles": "CNC(=O)c1cncc(/C=C/c2c(Cl)cccc2Cl)c1",
    "target_entity": "Receptor tyrosine-protein kinase erbB-4 (Homo sapiens) (UniProt Q15303)",
    "measurement_units": "%",
    "inhibition": -0.22
  },
  {
    "mol_smiles": "COc1cccc(-n2ncc3c(N/N=C/c4cccc(F)c4)ncnc32)c1",
    "target_entity": "Receptor tyrosine-protein kinase erbB-4 (Homo sapiens) (UniProt Q15303)",
    "measurement_units": "%",
    "inhibition": 1.08
  },
  {
    "mol_smiles": "NC(=O)c1ccc(-c2nc(-c3ccccn3)c(-c3ccc4c(c3)OCO4)[nH]2)cc1",
    "target_entity": "Receptor tyrosine-protein kinase erbB-4 (Homo sapiens) (UniProt Q15303)",
    "measurement_units": "%",
    "inhibition": 7.53
  },
  {
    "mol_smiles": "CCn1c(-c2nonc2N)nc2cnc(Oc3cccc(NC(=O)c4ccc(OCCN5CCOCC5)cc4)c3)cc21",
    "target_entity": "Receptor tyrosine-protein kinase erbB-4 (Homo sapiens) (UniProt Q15303)",
    "measurement_units": "%",
    "inhibition": 5.15
  },
  {
    "mol_smiles": "COc1ccc(-c2nn3ncccc3c2-c2ccnc(Nc3ccc(Cl)c(C(F)(F)F)c3)n2)cc1",
    "target_entity": "Receptor tyrosine-protein kinase erbB-4 (Homo sapiens) (UniProt Q15303)",
    "measurement_units": "%",
    "inhibition": 16
  }
]
